Tested on: amylase
Test: Amylase activity retention in detergent use solution (4000 ppm, 5 GPG water; ethylidene substrate EPS, HEPES buffer pH 8.0)
Assay type: biochemical
Details: base formula, phosphonate 0.6 wt-%, use solution at 120º F., time 150 min
Description: The enzyme activities in the detergents with different phosphonate levels were tested at 4000 ppm in 5 grains per gallon (GPG) water at 120° F. with various time points collected up to 4 hours, after a use solution was generated from the detergent composition. During the tests, the samples at different time points were collected and immediately frozen in an acetone/dry ice bath and stored in −80° C. before the activity of the enzyme was evaluated. […]
attribute_measured: Relative Amylase Enzyme Activity (%)

>>> recorded_measurement("O=P(O)(O)CN(CP(=O)(O)O)CP(=O)(O)O")
101.54
>>> recorded_measurement("NCP(=O)(O)O")
92.05
>>> recorded_measurement("CC(O)(P(=O)(O)O)P(=O)(O)O")
90.33
>>> recorded_measurement("O=C(O)CCC(CC(=O)O)(C(=O)O)P(=O)(O)O (stereo not shown)")
74.97

====

Test system: protease
Assay: Protease activity retention in detergent use solution (4000 ppm, 5 GPG water; peptidyl substrate, glycine buffer pH 9.0)
Assay type: biochemical
Conditions: base formula, phosphonate 0.6 wt-%, use solution at 120° F., time 60 min
attribute_measured: Relative Protease Enzyme Activity (%)

>>> recorded_measurement("CC(O)(P(=O)(O)O)P(=O)(O)O")
7.62
>>> recorded_measurement("O=P(O)(O)CN(CP(=O)(O)O)CP(=O)(O)O")
92.31
>>> recorded_measurement("NCP(=O)(O)O")
75.86
>>> recorded_measurement("O=C(O)CCC(CC(=O)O)(C(=O)O)P(=O)(O)O (stereo not shown)")
4.84

====

Measured Relative Amylase Enzyme Activity of individual entries
Tested on: amylase
Assay: Amylase activity retention in detergent use solution (4000 ppm, 5 GPG water; ethylidene substrate EPS, HEPES buffer pH 8.0)
Assay type: biochemical
Details: base formula, phosphonate 0.6 wt-%, use solution at 120º F., time 5 min
attribute_measured: Relative Amylase Enzyme Activity (%)

>>> recorded_measurement("CC(O)(P(=O)(O)O)P(=O)(O)O [HEDP]")
96.09
>>> recorded_measurement("O=C(O)CCC(CC(=O)O)(C(=O)O)P(=O)(O)O (stereo not shown) [PBTC, Phosphonebutane tricarboxylic acid]")
107.86
>>> recorded_measurement("NCP(=O)(O)O [AMPA, Aminomethyl phosphonic acid]")
91.80
>>> recorded_measurement("O=P(O)(O)CN(CP(=O)(O)O)CP(=O)(O)O [ATMP, Aminotri (methylene phosphonic acid)]")
87.10

====

System: protease
Assay: Protease activity retention in detergent use solution (4000 ppm, 5 GPG water; peptidyl substrate, glycine buffer pH 9.0)
Format: biochemical
Details: base formula, phosphonate at 0.1% elemental phosphorus, use solution at 120° F., time 90 min
Measured Relative Protease Enzyme Activity of individual entries
attribute_measured: Relative Protease Enzyme Activity (%)

>>> recorded_measurement("O=P(O)(O)CN(CP(=O)(O)O)CP(=O)(O)O")
111.18
>>> recorded_measurement("NCP(=O)(O)O")
49.17
>>> recorded_measurement("O=C(O)CCC(CC(=O)O)(C(=O)O)P(=O)(O)O (stereo not shown)")
2.99
>>> recorded_measurement("CC(O)(P(=O)(O)O)P(=O)(O)O")
3.76

====

Test system: amylase
Experiment: Amylase activity retention in detergent use solution (4000 ppm, 5 GPG water; ethylidene substrate EPS, HEPES buffer pH 8.0)
Format: biochemical
Conditions: base formula, phosphonate 0.3 wt-%, use solution at 120° F., time 10 min
Experimental: The enzyme activities in the detergents with different phosphonate levels were tested at 4000 ppm in 5 grains per gallon (GPG) water at 120° F. with various time points collected up to 4 hours, after a use solution was generated from the detergent composition. During the tests, the samples at different time points were collected and immediately frozen in an acetone/dry ice bath and stored in −80° C. before the activity of the enzyme was evaluated. […]
attribute_measured: Relative Amylase Enzyme Activity (%)

>>> recorded_measurement("O=C(O)CCC(CC(=O)O)(C(=O)O)P(=O)(O)O (stereo not shown)")
94.03
>>> recorded_measurement("O=P(O)(O)CN(CP(=O)(O)O)CP(=O)(O)O")
82.94
>>> recorded_measurement("NCP(=O)(O)O")
95.55
>>> recorded_measurement("CC(O)(P(=O)(O)O)P(=O)(O)O")
90.32

====

Measured Relative Amylase Enzyme Activity of individual entries
Test system: amylase
Test: Amylase activity retention in detergent use solution (4000 ppm, 5 GPG water; ethylidene substrate EPS, HEPES buffer pH 8.0)
Assay type: biochemical
Details: base formula, phosphonate at 0.1% elemental phosphorus level, use solution at 120º F., time 180 min
attribute_measured: Relative Amylase Enzyme Activity (%)

>>> recorded_measurement("O=C(O)CCC(CC(=O)O)(C(=O)O)P(=O)(O)O (stereo not shown)")
82.80
>>> recorded_measurement("CC(O)(P(=O)(O)O)P(=O)(O)O")
75.47
>>> recorded_measurement("NCP(=O)(O)O")
102.05
>>> recorded_measurement("O=P(O)(O)CN(CP(=O)(O)O)CP(=O)(O)O")
103.89

====

System: amylase
Assay: Amylase activity retention in detergent use solution (4000 ppm, 5 GPG water; ethylidene substrate EPS, HEPES buffer pH 8.0)
Assay type: biochemical
Settings: base formula, phosphonate 0.3 wt-%, use solution at 120° F., time 90 min
Measured Relative Amylase Enzyme Activity of individual entries
attribute_measured: Relative Amylase Enzyme Activity

>>> recorded_measurement("CC(O)(P(=O)(O)O)P(=O)(O)O")
"79.95%"
>>> recorded_measurement("O=P(O)(O)CN(CP(=O)(O)O)CP(=O)(O)O")
"94.47%"
>>> recorded_measurement("NCP(=O)(O)O")
"87.43%"
>>> recorded_measurement("O=C(O)CCC(CC(=O)O)(C(=O)O)P(=O)(O)O (stereo not shown)")
"84.89%"

====

Measured Relative Amylase Enzyme Activity of individual entries
Tested on: amylase
Assay: Amylase activity retention in detergent use solution (4000 ppm, 5 GPG water; ethylidene substrate EPS, HEPES buffer pH 8.0)
Type: biochemical
Conditions: base formula, phosphonate 0.3 wt-%, use solution at 120° F., time 150 min
attribute_measured: Relative Amylase Enzyme Activity (%)

>>> recorded_measurement("NCP(=O)(O)O")
93.49
>>> recorded_measurement("O=C(O)CCC(CC(=O)O)(C(=O)O)P(=O)(O)O (stereo not shown)")
76.25
>>> recorded_measurement("O=P(O)(O)CN(CP(=O)(O)O)CP(=O)(O)O")
94.00
>>> recorded_measurement("CC(O)(P(=O)(O)O)P(=O)(O)O")
79.54

====

Tested on: amylase
Test: Amylase activity retention in detergent use solution (4000 ppm, 5 GPG water; ethylidene substrate EPS, HEPES buffer pH 8.0)
Format: biochemical
Conditions: base formula, phosphonate at 0.1% elemental phosphorus level, use solution at 120º F., time 90 min
Measured Relative Amylase Enzyme Activity of individual entries
attribute_measured: Relative Amylase Enzyme Activity (%)

>>> recorded_measurement("O=C(O)CCC(CC(=O)O)(C(=O)O)P(=O)(O)O (stereo not shown)")
90.47
>>> recorded_measurement("O=P(O)(O)CN(CP(=O)(O)O)CP(=O)(O)O")
101.79
>>> recorded_measurement("NCP(=O)(O)O")
96.88
>>> recorded_measurement("CC(O)(P(=O)(O)O)P(=O)(O)O")
85.26

====

Tested on: amylase
Test: Amylase activity retention in detergent use solution (4000 ppm, 5 GPG water; ethylidene substrate EPS, HEPES buffer pH 8.0)
Format: biochemical
Details: base formula, phosphonate 0.3 wt-%, use solution at 120° F., time 180 min
Measured Relative Amylase Enzyme Activity of individual entries
attribute_measured: Relative Amylase Enzyme Activity

>>> recorded_measurement("O=C(O)CCC(CC(=O)O)(C(=O)O)P(=O)(O)O (stereo not shown)")
"81.01%"
>>> recorded_measurement("NCP(=O)(O)O")
"102.37%"
>>> recorded_measurement("O=P(O)(O)CN(CP(=O)(O)O)CP(=O)(O)O")
"90.87%"
>>> recorded_measurement("CC(O)(P(=O)(O)O)P(=O)(O)O")
"84.18%"

====

System: lipase
Assay: Lipase activity retention in detergent use solution (4000 ppm, 5 GPG water; p-nitrophenyl valerate, TRIS buffer pH 8.0)
Format: biochemical
Conditions: base formula, phosphonate at 0.1% elemental phosphorus, at 120º F. or at room temperature (as titled), time 150 min
Measured Relative Lipase Enzyme Activity of individual entries
attribute_measured: Relative Lipase Enzyme Activity (%)

>>> recorded_measurement("O=P(O)(O)CN(CP(=O)(O)O)CP(=O)(O)O")
21.51
>>> recorded_measurement("CC(O)(P(=O)(O)O)P(=O)(O)O")
11.14
>>> recorded_measurement("NCP(=O)(O)O")
23.85
>>> recorded_measurement("O=C(O)CCC(CC(=O)O)(C(=O)O)P(=O)(O)O (stereo not shown)")
11.11

Attribution: patent US11807835B2
